# Target Desc: T1, Human CD3eg linker (human)
# T1 construct: Single chain: epsilon and gamma subunits of human CD3 joined by a 29-mer linker, Flag-tag at the C-terminus; also called recombinant human CD3
# T1 chain: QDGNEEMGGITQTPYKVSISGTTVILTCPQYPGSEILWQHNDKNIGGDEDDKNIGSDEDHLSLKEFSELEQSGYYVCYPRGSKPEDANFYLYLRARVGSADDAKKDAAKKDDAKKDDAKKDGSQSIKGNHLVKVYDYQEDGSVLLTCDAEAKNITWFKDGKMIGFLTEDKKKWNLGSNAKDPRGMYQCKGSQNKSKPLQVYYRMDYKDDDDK
# Experimental Protocol: Biacore SPR, vs template H183/L072
# Lookup of reported fold change of affinity keyed by entry
Form entry: value (fold) — number only.

H183/L072 VH S30A (antibody, name in Kabat numbering, V domains shown) VH: QVQLVESGGGLVQPGRSLRLSCAASGFTFANAWMHWVRQAPGKGLEWVAQIKDKGNAYAAYYAPSVKGRFTISRDDSKNSIYLQMNSLKTEDTAVYYCHYVHYASASTVLPAFGVDAWGQGTTVTVSS VL: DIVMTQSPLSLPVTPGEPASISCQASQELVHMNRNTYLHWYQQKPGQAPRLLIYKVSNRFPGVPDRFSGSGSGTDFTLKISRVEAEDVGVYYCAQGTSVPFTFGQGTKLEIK: 0.8

Next item in the queue.
Which fold change of affinity is listed for H183/L072 VH Y55S (antibody, name in Kabat numbering, V domains shown) VH: QVQLVESGGGLVQPGRSLRLSCAASGFTFSNAWMHWVRQAPGKGLEWVAQIKDKGNASAAYYAPSVKGRFTISRDDSKNSIYLQMNSLKTEDTAVYYCHYVHYASASTVLPAFGVDAWGQGTTVTVSS VL: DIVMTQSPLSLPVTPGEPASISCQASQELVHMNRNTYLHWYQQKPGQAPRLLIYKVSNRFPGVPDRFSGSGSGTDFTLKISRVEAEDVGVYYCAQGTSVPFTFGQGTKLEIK ?
0
